Test system: 422866-222-R5-J1-PDC complex spheroid viability
assay: Anticancer human tumor 422866-222-R5-J1-PDC patient-derived pancreatic adenocarcinoma cell line growth inhibition [POLQ]
measurement_context: second compound 0.0316 µM; first compound 1 µM; stronger effect = lower value
quantity: viability, T/C (%)

[
  {
    "molecule": "C=CC(=O)N1CCN(c2nc(=O)n(-c3c(C)ccnc3C(C)C)c3nc(-c4c(O)cccc4F)c(F)cc23)C(C)C1 (stereo not given) + COC1C(OC(N)=O)C(O)C(Oc2ccc3c(O)c(NC(=O)c4ccc(O)c(CC=C(C)C)c4)c(=O)oc3c2C)OC1(C)C",
    "tested_system": "422866-222-R5-J1-PDC complex spheroid viability",
    "unit_spec": "%",
    "reported_measurement": 22.4
  },
  {
    "molecule": "Nc1ccn(C2OC(CO)C(O)C2(F)F)c(=O)n1 (stereo not given) + COC1C(OC(N)=O)C(O)C(Oc2ccc3c(O)c(NC(=O)c4ccc(O)c(CC=C(C)C)c4)c(=O)oc3c2C)OC1(C)C",
    "tested_system": "422866-222-R5-J1-PDC complex spheroid viability",
    "unit_spec": "%",
    "reported_measurement": 33.1
  },
  {
    "molecule": "CC(C)n1c(=O)n(C)c2cnc3cc(F)c(-c4ccc(OCCCN5CCCCC5)nc4)cc3c21 + Nc1ccc(C#CCN(C(=O)Cc2ncc(C(F)(F)F)cc2C(F)(F)F)c2ccc(F)cc2)nn1",
    "tested_system": "422866-222-R5-J1-PDC complex spheroid viability",
    "unit_spec": "%",
    "reported_measurement": 99.3
  },
  {
    "molecule": "CCc1c2c(nc3ccc(O)cc13)-c1cc3c(c(=O)n1C2)COC(=O)[C@]3(O)CC + COC1C(OC(N)=O)C(O)C(Oc2ccc3c(O)c(NC(=O)c4ccc(O)c(CC=C(C)C)c4)c(=O)oc3c2C)OC1(C)C",
    "tested_system": "422866-222-R5-J1-PDC complex spheroid viability",
    "unit_spec": "%",
    "reported_measurement": 19.7
  },
  {
    "molecule": "COc1ccc([C@@H](O)c2cc(-c3ncnc4cc(N5CCOCC5)ccc34)c(F)cc2Cl)nn1 + Nc1ccc(C#CCN(C(=O)Cc2ncc(C(F)(F)F)cc2C(F)(F)F)c2ccc(F)cc2)nn1",
    "tested_system": "422866-222-R5-J1-PDC complex spheroid viability",
    "unit_spec": "%",
    "reported_measurement": 55.3
  },
  {
    "molecule": "CCc1cc2c(N3CCc4c(cc(Cn5ccnc5)cc4-c4cn(C)nc4C(F)(F)F)C3=O)ccnc2c(OC)n1 + Nc1ccc(C#CCN(C(=O)Cc2ncc(C(F)(F)F)cc2C(F)(F)F)c2ccc(F)cc2)nn1",
    "tested_system": "422866-222-R5-J1-PDC complex spheroid viability",
    "unit_spec": "%",
    "reported_measurement": 119
  },
  {
    "molecule": "COc1ccc([C@@H](O)c2cc(-c3ncnc4cc(N5CCOCC5)ccc34)c(F)cc2Cl)nn1 + COC1C(OC(N)=O)C(O)C(Oc2ccc3c(O)c(NC(=O)c4ccc(O)c(CC=C(C)C)c4)c(=O)oc3c2C)OC1(C)C",
    "tested_system": "422866-222-R5-J1-PDC complex spheroid viability",
    "unit_spec": "%",
    "reported_measurement": 67.2
  },
  {
    "molecule": "CC1COCCN1c1cc(-c2ccnn2C)c2ccnc(-c3ccn[nH]3)c2n1 (stereo not given) + Cc1cccc(N(C)C(=O)C2C(O)CCN2c2nc(C)cc(C(F)(F)F)c2C#N)c1",
    "tested_system": "422866-222-R5-J1-PDC complex spheroid viability",
    "unit_spec": "%",
    "reported_measurement": 37.8
  },
  {
    "molecule": "CCCS(=O)(=O)Nc1ccc(F)c(C(=O)c2c[nH]c3ncc(-c4ccc(Cl)cc4)cc23)c1F + Cc1cccc(N(C)C(=O)C2C(O)CCN2c2nc(C)cc(C(F)(F)F)c2C#N)c1",
    "tested_system": "422866-222-R5-J1-PDC complex spheroid viability",
    "unit_spec": "%",
    "reported_measurement": 156
  },
  {
    "molecule": "CC(C)n1c(=O)n(C)c2cnc3cc(F)c(-c4ccc(OCCCN5CCCCC5)nc4)cc3c21 + COC1C(OC(N)=O)C(O)C(Oc2ccc3c(O)c(NC(=O)c4ccc(O)c(CC=C(C)C)c4)c(=O)oc3c2C)OC1(C)C",
    "tested_system": "422866-222-R5-J1-PDC complex spheroid viability",
    "unit_spec": "%",
    "reported_measurement": 38.5
  }
]

----------
System: 422866-222-R5-J1-PDC complex spheroid viability
assay: Anticancer human tumor 422866-222-R5-J1-PDC cell line growth inhibition [POLQ];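 also: spheroids exposed to compounds for one week before readout; percent of DMSO vehicle wells luminescence so 100% = untreated viability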
measurement_context: second compound 10 µM; first compound 10 µM; stronger effect = lower value
quantity: viability, T/C (%)

[
  {
    "compound": "CCc1cc2c(N3CCc4c(cc(Cn5ccnc5)cc4-c4cn(C)nc4C(F)(F)F)C3=O)cc(C)nc2c(OC)n1 + Nc1ccc(C#CCN(C(=O)Cc2ncc(C(F)(F)F)cc2C(F)(F)F)c2ccc(F)cc2)nn1",
    "quantity": "viability, T/C",
    "reported_measurement": 113
  },
  {
    "compound": "COc1cc(C2c3cc4c(cc3C(OC3OC5COC(C)OC5C(O)C3O)C3COC(=O)C23)OCO4)cc(OC)c1O (stereo not given) + Nc1ccc(C#CCN(C(=O)Cc2ncc(C(F)(F)F)cc2C(F)(F)F)c2ccc(F)cc2)nn1",
    "quantity": "viability, T/C",
    "reported_measurement": 31.6
  },
  {
    "compound": "COc1cccc2c1C(=O)c1c(O)c3c(c(O)c1C2=O)CC(O)(C(=O)CO)CC3OC1CC(N)C(O)C(C)O1 (stereo not given) + COC1C(OC(N)=O)C(O)C(Oc2ccc3c(O)c(NC(=O)c4ccc(O)c(CC=C(C)C)c4)c(=O)oc3c2C)OC1(C)C",
    "quantity": "viability, T/C",
    "reported_measurement": 29.8
  },
  {
    "compound": "CC1COCCN1c1cc(C2(S(C)(=N)=O)CC2)nc(-c2ccnc3[nH]ccc23)n1 (stereo not given) + COC1C(OC(N)=O)C(O)C(Oc2ccc3c(O)c(NC(=O)c4ccc(O)c(CC=C(C)C)c4)c(=O)oc3c2C)OC1(C)C",
    "quantity": "viability, T/C",
    "reported_measurement": 33
  },
  {
    "compound": "CC1COCCN1c1cc(C2(S(C)(=N)=O)CC2)nc(-c2ccnc3[nH]ccc23)n1 (stereo not given) + Cc1cccc(N(C)C(=O)C2C(O)CCN2c2nc(C)cc(C(F)(F)F)c2C#N)c1",
    "quantity": "viability, T/C",
    "reported_measurement": 37.4
  },
  {
    "compound": "C=CC(=O)N1CCN(c2nc(=O)n(-c3c(C)ccnc3C(C)C)c3nc(-c4c(O)cccc4F)c(F)cc23)C(C)C1 (stereo not given) + COC1C(OC(N)=O)C(O)C(Oc2ccc3c(O)c(NC(=O)c4ccc(O)c(CC=C(C)C)c4)c(=O)oc3c2C)OC1(C)C",
    "quantity": "viability, T/C",
    "reported_measurement": 28.6
  },
  {
    "compound": "CC1COCCN1c1cc(C2(O)CC3CCC(C2)O3)c2cnn(-c3ccn[nH]3)c2n1 (stereo not given) + Nc1ccc(C#CCN(C(=O)Cc2ncc(C(F)(F)F)cc2C(F)(F)F)c2ccc(F)cc2)nn1",
    "quantity": "viability, T/C",
    "reported_measurement": 63.4
  },
  {
    "compound": "O=c1[nH]cc(F)c(=O)[nH]1 + COC1C(OC(N)=O)C(O)C(Oc2ccc3c(O)c(NC(=O)c4ccc(O)c(CC=C(C)C)c4)c(=O)oc3c2C)OC1(C)C",
    "quantity": "viability, T/C",
    "reported_measurement": 81.4
  },
  {
    "compound": "Nc1ccn(C2OC(CO)C(O)C2(F)F)c(=O)n1 (stereo not given) + COC1C(OC(N)=O)C(O)C(Oc2ccc3c(O)c(NC(=O)c4ccc(O)c(CC=C(C)C)c4)c(=O)oc3c2C)OC1(C)C",
    "quantity": "viability, T/C",
    "reported_measurement": 35.4
  },
  {
    "compound": "CC(C)n1c(=O)n(C)c2cnc3cc(F)c(-c4ccc(OCCCN5CCCCC5)nc4)cc3c21 + Cc1cccc(N(C)C(=O)C2C(O)CCN2c2nc(C)cc(C(F)(F)F)c2C#N)c1",
    "quantity": "viability, T/C",
    "reported_measurement": 60.3
  }
]
